Just for reference, paper PMC5761851 is where these values come from.

Exercise: for every item that follows, state its recorded remaining activity at 10 µM.
- Study system: GSK3β (Homo sapiens)
- Construct: purchased Eurofins Pharma Discovery Services (KinaseProfiler; Cerep BioPrint panel)
- Sequence (P49841 whole entry): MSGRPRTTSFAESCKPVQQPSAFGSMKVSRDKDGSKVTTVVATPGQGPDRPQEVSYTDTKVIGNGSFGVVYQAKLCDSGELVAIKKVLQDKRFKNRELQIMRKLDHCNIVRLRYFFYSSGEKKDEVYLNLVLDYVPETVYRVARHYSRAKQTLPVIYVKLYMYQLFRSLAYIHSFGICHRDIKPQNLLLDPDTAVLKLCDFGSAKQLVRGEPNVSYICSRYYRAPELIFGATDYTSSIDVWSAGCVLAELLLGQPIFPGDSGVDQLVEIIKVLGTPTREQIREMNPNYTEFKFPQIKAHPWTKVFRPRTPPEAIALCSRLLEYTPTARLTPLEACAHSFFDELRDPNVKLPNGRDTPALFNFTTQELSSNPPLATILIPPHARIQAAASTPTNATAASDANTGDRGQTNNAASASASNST
- Experiment notes: kinase selectivity panel
- Type: biochemical
- Run parameters: read-out: percentage of control activity (POC), GSK3β
- Method: Kinase selectivity was evaluated at Eurofins Pharma Discovery Services using a selection of 125 representative kinases tested at a concentration of 10 μM in duplicate (S3 Table). IC50 values for selected activities were further characterized at 9 duplicate concentrations. DNA-PK activity was determined at the SelectScreen® Biochemical kinase Profiling Service of Thermo Fisher Scientific.
Form entry: value (%) — number only.

Would you kindly share the measured remaining activity at 10 µM for CC(C)(C)N1CCC(c2cc(-c3ccc(F)cc3Cl)c3cc[n+]([O-])c(-c4c(Cl)cccc4Cl)c3n2)CC1 [compound 2] ?
99

Quick one: remaining activity at 10 µM for CS(=O)(=O)N1CCN(c2ccc(Nc3ncc(C(N)=O)c(NC4CC4)n3)cc2)CC1 [compound 5] ?
25

Reported remaining activity at 10 µM, compound Cc1ccc(C(=O)NCC2CC2)cc1-c1ccc2c(c1)NC(=O)C21CCCC1 [compound 3] : ____
104

Entry under review: COc1c(NC(=O)c2ccc(C)c(-c3nnc4c(NCC(C)(C)C)nccn34)c2)cc(C(C)(C)C)cc1NS(C)(=O)=O [compound 7, reference compound] . Reported remaining activity at 10 µM?
117

Given the entry Cn1cc(-c2cccc(-c3nc(C(=O)NC4C5CC6CC4CC(O)(C6)C5)c(N)nc3N)c2)cn1 (centres unmarked) [compound 4] , report its measured remaining activity at 10 µM.
105
